Quick list: polymerase ribozyme fitness (log ratio) per entry.
B1: TPR 5TU (parent)
chain: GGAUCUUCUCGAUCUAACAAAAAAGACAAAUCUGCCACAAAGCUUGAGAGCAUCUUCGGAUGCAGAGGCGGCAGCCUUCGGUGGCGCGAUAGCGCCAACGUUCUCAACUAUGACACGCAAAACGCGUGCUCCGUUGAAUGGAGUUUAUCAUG

Variants of: B1
Experiment: polymerase ribozyme fitness, log enrichment relative to wild type (log ratio); higher = more active; in vitro selection for triplet polymerase activity
Fewer inactive variants are shown than the library holds.
endpointLabel: polymerase ribozyme fitness (log ratio)

- G74A C114U: -3.85
- A52G C93A: -3.25
- A26U U134A: -3.96
- C69G C96U A142C: -2.43
- C57U G126A A138U: -3.43
- U7C C35U U127G: -3.61
- C27U U53A C85G: -3.88
- U45G C114U A119U: -2.4
- G25C G94A: -3.16
- C76U A137G: -0.882
- U55G G58C: -0.558
- A21G C57A G81C A97G U101C U135C: -1.99
- G86U G92C A98G A150U: -2.26
